Recorded CRF1R EC50 values for a group of binders are listed next.
# System name: CRF1R
# Assay summary: cell-based or functional assay
Ends that are not written are not given here.
Numbers only here, please. The scale is nM.

Here's what some known entries look like.
Binder	Readout label	Observed value
SQEPPISLDLTFGLLREVLEMTKADQLAQQAHSNRKLLDIA-NH2 [SEQ ID NO 88]	CRF1R EC50	100
DNPSLSIDLPLYLLRTLLELARTQSQRERAEQNAIIFASV-NH2 [SEQ ID NO 177]	CRF1R EC50	613
SQEPPISLDLPLHLLREVLEMTKADQLAQQAHSNRKLLDIA-NH2 [SEQ ID NO 102]	CRF1R EC50	100
ZGPPISIDLPYTLLRKMIEIEKQEKEKQQAANNRLLLDTI (C-terminal amide) [SEQ ID NO 200]	CRF1R EC50	188
IVLSLDVPIGLLQILLEQAKARAAREQATTNARILARV-NH2 [SEQ ID NO 109]	CRF1R EC50	100
IVLSLDVPGPLLQILLEQTKQEAAREQATTNARILARV-NH2 [SEQ ID NO 5]	CRF1R EC50	100

For this binder ( ZGPPISIDLPVYLLRKMIEIEKQEKEKQQAANNRLLLDTI (C-terminal amide) [SEQ ID NO 39] ), measured CRF1R EC50 is 1000

Entry SQEPPISLDLPTGLLREVLEMTKADQLAQQAHSNRKLLDIA-NH2 [SEQ ID NO 98] , CRF1R EC50 reported as 100

CRF1R EC50 reported for this binder ZGPPISIDLPFQLLRKMIEIEKQEKEKQQATTNARLLATV (C-terminal amide) [SEQ ID NO 21] : 908
